Values compiled from the supplement of paper PMC8882468.

# Tested on: HCI-024 (organoid from a breast cancer xenograft)
# test_summary: CTG-3D luminescence at 96 h relative to day-0 seeding control (ratio to day 0); higher = more growth / less cytotoxicity; PDxO 3D drug screen (set 2), 96 h, CTG-3D normalised to day-0 seeding control.
# test_conditions: 0.005 µM; days in culture: 231
readout: CTG-3D luminescence at 96 h
Write the number on its own, no unit after it.

Record excerpt, results attached:
CO[C@H]1C[C@@H]2CC[C@@H](C)[C@@](O)(O2)C(=O)C(=O)N2CCCC[C@H]2C(=O)O[C@H]([C@H](C)C[C@@H]2CC[C@@H](O)[C@H](OC)C2)CC(=O)[C@H](C)/C=C(\C)[C@@H](O)[C@@H](OC)C(=O)[C@H](C)C[C@H](C)/C=C/C=C/C=C/1C : 1.27
COc1cccc2c1C(=O)c1c(O)c3c(c(O)c1C2=O)C[C@@](O)(C(=O)CO)C[C@@H]3O[C@H]1C[C@H](N)[C@@H](O)[C@H](C)O1 [epirubicin] : 1.2
CO[C@H]1C[C@@H]2CC[C@@H](C)[C@@](O)(O2)C(=O)C(=O)N2CCCC[C@H]2C(=O)O[C@H]([C@H](C)C[C@@H]2CC[C@@H](OCCO)[C@H](OC)C2)CC(=O)[C@H](C)/C=C(\C)[C@@H](O)[C@@H](OC)C(=O)[C@H](C)C[C@H](C)/C=C/C=C/C=C/1C : 0.961

// below: CTG-3D luminescence at 96 h requested for another compound
## Task What CTG-3D luminescence at 96 h value was documented for this compound, Nc1cc(C(F)(F)F)c(-c2cc(N3CCOCC3)nc(N3CCOCC3)n2)cn1 ?
## Result 0.905
